- study-target: HDAC1 (Homo sapiens)
- Sequence (Q13547 whole entry): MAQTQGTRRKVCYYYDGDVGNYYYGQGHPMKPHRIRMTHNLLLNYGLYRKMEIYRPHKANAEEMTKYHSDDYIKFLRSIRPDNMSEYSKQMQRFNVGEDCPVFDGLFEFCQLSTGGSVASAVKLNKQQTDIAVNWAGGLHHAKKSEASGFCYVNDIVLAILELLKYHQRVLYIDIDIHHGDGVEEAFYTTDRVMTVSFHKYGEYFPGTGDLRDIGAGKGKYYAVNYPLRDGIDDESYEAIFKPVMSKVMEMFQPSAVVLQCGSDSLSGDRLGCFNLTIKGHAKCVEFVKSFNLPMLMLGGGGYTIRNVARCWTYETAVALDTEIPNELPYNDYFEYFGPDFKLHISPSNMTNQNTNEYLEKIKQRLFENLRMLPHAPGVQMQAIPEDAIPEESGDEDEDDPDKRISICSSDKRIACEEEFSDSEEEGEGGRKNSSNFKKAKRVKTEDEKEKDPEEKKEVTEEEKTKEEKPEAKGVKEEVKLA
- assay-method-text: biochemical
- Set-up: HDAC inhibition assay, IC50
- condition-description: read-out: HDAC inhibition (HDAC1)
pIC50: −log10 of the molar value.
property-measured: pIC50

Nc1ccccc1NC(=O)c1ccccc1 = 5.10
Cc1ccc(C(=O)Nc2ccccc2O)cc1 = 5.52

----------
- study-target: HDAC3 (Homo sapiens)
- Sequence (O15379 whole entry): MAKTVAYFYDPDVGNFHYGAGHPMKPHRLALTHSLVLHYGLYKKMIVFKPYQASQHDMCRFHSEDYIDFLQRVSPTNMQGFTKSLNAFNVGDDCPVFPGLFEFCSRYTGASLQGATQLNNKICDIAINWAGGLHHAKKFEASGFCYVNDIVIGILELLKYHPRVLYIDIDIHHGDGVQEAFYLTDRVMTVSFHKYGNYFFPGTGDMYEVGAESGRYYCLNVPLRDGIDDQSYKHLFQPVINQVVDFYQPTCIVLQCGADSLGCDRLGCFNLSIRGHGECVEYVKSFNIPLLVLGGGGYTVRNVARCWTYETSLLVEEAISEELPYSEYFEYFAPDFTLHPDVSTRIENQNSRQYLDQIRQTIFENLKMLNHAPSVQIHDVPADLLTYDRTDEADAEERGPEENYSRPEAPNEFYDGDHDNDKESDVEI
- assay-method-text: HDAC3 inhibition assay (details not given)
- Format: biochemical
property-measured: IC50

Cc1ccc(C(=O)Nc2ccccc2N)cc1 [#638, DSK638] = ~10 µM

----------
- study-target: UniProt O15379
- assay-method-text: biochemical
- Set-up: HDAC inhibition assay, IC50
- condition-description: read-out: HDAC inhibition (HDAC3)
Measured IC50 values are reported for all entries that follow.
property-measured: IC50 (µM)

Nc1ccccc1NC(=O)c1ccccc1 [NAPB] = 5
Cc1ccc(C(=O)Nc2ccccc2O)cc1 [NHPMB] = 3
